# measured_target: human TRPA1 channel (Homo sapiens (Human), UniProt O75762)
# Sequence (O75762 whole entry): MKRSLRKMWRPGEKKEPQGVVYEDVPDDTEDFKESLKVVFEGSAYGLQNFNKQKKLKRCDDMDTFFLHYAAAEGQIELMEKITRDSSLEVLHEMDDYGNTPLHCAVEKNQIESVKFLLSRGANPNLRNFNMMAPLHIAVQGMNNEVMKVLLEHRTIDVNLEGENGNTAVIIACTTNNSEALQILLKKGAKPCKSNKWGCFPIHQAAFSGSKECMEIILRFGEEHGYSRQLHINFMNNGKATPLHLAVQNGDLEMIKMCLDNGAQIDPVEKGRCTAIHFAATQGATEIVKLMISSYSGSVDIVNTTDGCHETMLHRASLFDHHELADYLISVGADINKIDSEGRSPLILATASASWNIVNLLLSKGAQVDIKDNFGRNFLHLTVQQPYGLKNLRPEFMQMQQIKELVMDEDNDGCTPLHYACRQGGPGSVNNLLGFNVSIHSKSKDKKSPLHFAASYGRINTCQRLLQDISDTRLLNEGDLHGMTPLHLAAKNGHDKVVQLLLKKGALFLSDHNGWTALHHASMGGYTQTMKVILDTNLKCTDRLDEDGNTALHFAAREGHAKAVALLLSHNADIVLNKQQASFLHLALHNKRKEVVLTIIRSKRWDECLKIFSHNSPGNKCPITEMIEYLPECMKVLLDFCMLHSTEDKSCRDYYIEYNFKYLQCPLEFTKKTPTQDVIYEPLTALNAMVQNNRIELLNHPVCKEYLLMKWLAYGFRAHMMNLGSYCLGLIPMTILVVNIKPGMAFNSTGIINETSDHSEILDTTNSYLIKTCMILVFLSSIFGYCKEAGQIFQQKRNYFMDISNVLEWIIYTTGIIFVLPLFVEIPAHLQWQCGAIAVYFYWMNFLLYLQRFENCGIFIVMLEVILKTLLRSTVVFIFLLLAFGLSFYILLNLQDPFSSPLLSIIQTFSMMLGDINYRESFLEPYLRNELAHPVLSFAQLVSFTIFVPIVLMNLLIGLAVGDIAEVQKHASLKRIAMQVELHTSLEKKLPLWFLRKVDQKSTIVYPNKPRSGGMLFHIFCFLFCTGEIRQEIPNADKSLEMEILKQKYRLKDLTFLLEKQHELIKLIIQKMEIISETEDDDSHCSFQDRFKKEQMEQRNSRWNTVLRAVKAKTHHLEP
# assay_method_text: hTRPA1 CHO Ca2+ FLIPR Tetra assay: block of cinnamaldehyde induced calcium influx
# Format: cell-based
# condition_summary: read-out: hTRPA1 IC50 10 min; CHO cells expressing TRPA1; 10 minutes incubation with compound before cinnamaldehyde (about EC80); Hill coefficient fixed to 1.5
# Description: CHO cells expressing TRPA1 were plated into 384-well plates, incubated overnight at 37° C., and loaded with BD calcium indicator dye for 1 hr at 37° C. followed by 15 minutes at room temperature. The assay buffer was Hank's Balanced Salt Solution (HBSS) containing 20 mM HEPES (pH readjusted to 7.4) along with 0.02% BSA. Following dye load and plate cool down, compounds were added to the cells using FLIPR Tetra. […]
Counter-ions that a name gives are not always drawn.
measured_endpoint: IC50 (nM)

molecule: Nc1ccc2c(=O)n(Cc3nc([C@@H]4CO[C@@H](c5ccc(Cl)cc5)C4)no3)ncc2n1
quantity_unit: nM
IC50: 10.5

I: Cn1cnc2ncn(Cc3nc([C@@H]4CO[C@@H](c5ccc(Cl)c(F)c5)C4)no3)c(=O)c21
II: O=c1c2ccncc2ncn1Cc1nc([C@@H]2CO[C@@H](c3ccc(Cl)cc3)C2)no1
III: O=c1c2c(cnn1Cc1nc([C@@H]3CO[C@@H](c4ccc(Cl)cc4)C3)no1)CNCC2 [Example 146, hydrochloride]
Rank order required: IC50, descending. Would you mind listing the labels in the order asked for?
III, II, I

###

# measured_target: human TRPA1 channel (Homo sapiens (Human))
# assay_method_text: hTRPA1 CHO Ca2+ FLIPR Tetra assay: block of cinnamaldehyde induced calcium influx
# Type: cell-based
# condition_summary: read-out: hTRPA1 IC50 90 min; CHO cells expressing TRPA1; 90 minutes incubation with compound before cinnamaldehyde (about EC80); Hill coefficient fixed to 1.5
pIC50: −log10 of the molar value.
measured_endpoint: pIC50

1: Cc1nc(N2CC(CN)C2)n2ncn(Cc3nc([C@@H]4CO[C@@H](c5ccc(Cl)cc5)C4)no3)c(=O)c12
2: Cc1nc(N)n2ncn(Cc3nc([C@@H]4CO[C@@H](c5ccc(F)cc5)C4)no3)c(=O)c12
Of 1 and 2 , whose reported pIC50 is numerically smaller? Answer with the label corresponding to your selection.
1

A: Cn1cnc2ncn(Cc3nc([C@@H]4CO[C@@H](c5ccc(C#N)cc5)C4)no3)c(=O)c21
B: Cc1ccnc2nc(N)n(Cc3nc([C@@H]4CO[C@@H](c5ccc(Cl)cc5)C4)no3)c(=O)c12
C: Cn1cnc2nc(N)n(Cc3nc([C@@H]4CO[C@@H](c5cccc(F)c5)C4)no3)c(=O)c21
D: O=c1c2c(ncn1Cc1nc([C@@H]3CO[C@@H](c4ccc(Cl)cc4)C3)no1)CNCC2
Please list the entries, largest pIC50 first. Rank the items, then write their labels in that order.
B, C, D, A

###

# measured_target: human TRPA1 channel (Homo sapiens (Human), UniProt O75762)
# assay_method_text: hTRPA1 CHO Ca2+ FLIPR Tetra assay: block of cinnamaldehyde induced calcium influx
# Type: cell-based
# condition_summary: read-out: hTRPA1 IC50 90 min; CHO cells expressing TRPA1; 90 minutes incubation with compound before cinnamaldehyde (about EC80); Hill coefficient fixed to 1.5
pIC50: −log10 of the molar value. Counter-ions that a name gives are not always drawn.
measured_endpoint: pIC50

Completed entries (count: 10):
molecule: Cc1cnn2nc(N)n(Cc3nc([C@@H]4CO[C@@H](c5ccc(F)cc5)C4)no3)c(=O)c12 [Example 3]
pIC50: 8.89
//
molecule: Cc1ccnc2c1c(=O)nc(N)n2Cc1nc([C@@H]2CO[C@@H](c3ccc(Cl)cc3)C2)no1 [Example 134]
pIC50: 8.22
//
molecule: Cc1cnn2ncn(Cc3nc([C@@H]4CO[C@@H](c5ccc(Cl)cc5)C4)no3)c(=O)c12 [Example 48]
pIC50: 9.10
//
molecule: Cn1cnc2c(C#N)nn(Cc3nc([C@@H]4CO[C@@H](c5ccc(Cl)cc5)C4)no3)c(=O)c21 [Example 131]
pIC50: 8.51
//
molecule: Cn1nnc2ncn(Cc3nc([C@@H]4CO[C@@H](c5ccc(Cl)cc5)C4)no3)c(=O)c21 [Example 16]
pIC50: 8.57
//
molecule: Cn1cnc2ncn(Cc3nc([C@@H]4CO[C@@]5(Cc6ccccc65)C4)no3)c(=O)c21 [Example 43]
pIC50: 6.85
//
molecule: Cn1cnc2ncn(Cc3nc([C@@H]4CO[C@@H](c5ccc(F)c(F)c5)C4)no3)c(=O)c21 [Example 18]
pIC50: 6.89
//
molecule: O=c1c2ccncc2ncn1Cc1nc([C@@H]2CO[C@@H](c3ccc(Cl)cc3)C2)no1 [Example 45]
pIC50: 8.11
//
molecule: O=c1c2c(cnn1Cc1nc([C@@H]3CO[C@@H](c4ccc(Cl)cc4)C3)no1)CNCC2 [Example 146, hydrochloride]
pIC50: 7.01
//
molecule: Cc1c(N)nn2ncn(Cc3nc([C@@H]4CO[C@@H](c5ccc(F)cc5)C4)no3)c(=O)c12 [Example 145]
pIC50: 7.34

a: Cn1cnc2ncn(Cc3nc([C@@H]4CO[C@@H](c5ccc(OC(F)F)cc5)C4)no3)c(=O)c21 [Example 19]
b: Cn1cnc2ncn(Cc3nc([C@@H]4CO[C@@H](c5ccc(F)cc5)C4)no3)c2c1=O [Example 69]
Determine, for a and b , which has the greater value of pIC50. Lab note: record the label of whichever item you select.
b
(b: 7.47, a: 6.96)
